Molecular target: K-Ras G12C (Homo sapiens (Human), UniProt P01116+P62937, G12C)
Sequence (P01116-2 other isoform, or with tags, fused parts or gaps G12C): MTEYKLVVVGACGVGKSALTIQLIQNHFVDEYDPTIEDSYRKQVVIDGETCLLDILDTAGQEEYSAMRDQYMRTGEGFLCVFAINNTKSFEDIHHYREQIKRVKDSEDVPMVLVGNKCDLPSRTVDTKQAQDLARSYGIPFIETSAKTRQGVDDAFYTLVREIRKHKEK
Sequence (P62937 whole entry): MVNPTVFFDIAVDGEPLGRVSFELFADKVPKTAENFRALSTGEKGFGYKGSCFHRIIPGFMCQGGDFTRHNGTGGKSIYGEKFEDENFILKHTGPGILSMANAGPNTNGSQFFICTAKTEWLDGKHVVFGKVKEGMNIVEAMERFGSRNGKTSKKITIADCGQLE
Test: Ras-Raf (BRAF RBD) disruption / FRET / MOA assay, KRAS G12C
Format: biochemical
Details: KRAS G12C; Ras-Raf disruption/FRET/MOA assay; read-out: IC50* KRAS G12C FRET data
pIC50: −log10 of the molar value.
Give pIC50 for every item shown.

stdin: For the compound C=CC(=O)N1CCC2(C1)CN(C(=O)N(C)[C@H](C(=O)N[C@H]1Cc3nc(cs3)-c3ccc4c(c3)c(c(-c3cccnc3[C@H](C)OC)n4CC(F)(F)F)CC(C)(C)COC(=O)[C@@H]3CCCN(N3)C1=O)C(C)C)C2 , report pIC50.
stdout: 7.00 to 8.00

stdin: Note pIC50 for the compound shown: C=CC(=O)N1CC[C@H](C(=O)N(C)[C@H](C(=O)N[C@H]2Cc3cc(O)cc(c3)-c3ccc4c(c3)c(c(-c3cc(C#N)cnc3COC)n4CC)CC(C)(C)COC(=O)[C@@H]3CCCN(N3)C2=O)C(C)C)C1
stdout: 7.00 to 8.00

----------
Test system: NCI-H358 cells (K-Ras G12C)
Assay: Potency assay: pERK in NCI-H358 cells
Format: cell-based, human
Conditions: Homo sapiens, NCI-H358; H358 KRAS G12C; read-out: pERK EC50
pEC50: −log10 of the molar value.
QUANTITY: pEC50

stdin: Look up and report measured pEC50 for this entry: C=CC(=O)N1CC[C@@]2(CCN(C(=O)N(C)[C@H](C(=O)N[C@H]3Cc4nc(cs4)-c4ccc5c(c4)c(c(-c4cccnc4[C@H](C)OC)n5CC)CC(C)(C)COC(=O)[C@@H]4CCCN(N4)C3=O)C(C)C)C2)C1 (atropisomer, axis not shown)
stdout: > 5.30

stdin: Fill in reported pEC50 for this entry: C=CC(=O)N1CC[C@H](C(=O)N(C)[C@H](C(=O)N[C@H]2Cc3cc(O)cc(c3)-c3ccc4c(c3)c(c(-c3ccccc3[C@H](C)OC)n4CC)CC(C)(C)COC(=O)[C@@H]3CCCN(N3)C2=O)C(C)C)C1
stdout: > 5.30

----------
Field: pIC50. Provide a value for each of the molecules that follow.
Target: KRAS G12D (Homo sapiens (Human), UniProt P01116+P62937, G12D)
Sequence (P01116-2 other isoform, or with tags, fused parts or gaps G12D): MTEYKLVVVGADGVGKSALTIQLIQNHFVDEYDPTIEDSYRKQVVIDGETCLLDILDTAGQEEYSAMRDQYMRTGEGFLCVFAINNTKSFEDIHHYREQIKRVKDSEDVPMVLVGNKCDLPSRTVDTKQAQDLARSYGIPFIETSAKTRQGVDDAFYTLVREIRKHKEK
Sequence (P62937 whole entry): as the sequence (P62937 whole entry) above
Assay: Ras-Raf (BRAF RBD) disruption / FRET / MOA assay, KRAS G12D
Type: biochemical
Conditions: Ras-Raf disruption/FRET/MOA assay; class symbols; read-out: KRAS G12D FRET data IC50
pIC50: −log10 of the molar value.

stdin: State, for KRAS G12D (Homo sapiens (Human), UniProt P01116+P62937, G12D), measured pIC50 of the molecule listed here: C=CC(=O)N(C)CCN1CCN(C(=O)N(C)[C@H](C(=O)N[C@H]2Cc3cccc(c3)-c3ccc4c(c3)c(c(-c3cccnc3[C@H](C)OC)n4CC)CC(C)(C)COC(=O)[C@@H]3CCCN(N3)C2=O)C(C)C)C[C@@H]1C (atropisomer, axis not shown) [Example A570]
stdout: 5.00 to 6.00

stdin: Under KRAS G12D (Homo sapiens (Human), UniProt P01116+P62937, G12D), report pIC50 for C=CC(=O)N1CC[C@H](C(=O)N(C)[C@H](C(=O)N[C@H]2Cc3nc(cs3)-c3ccc4c(c3)c(c(-c3cc(C5=CCN(C)CC5)cnc3[C@H](C)OC)n4CC)CC(C)(C)COC(=O)[C@@H]3CCCN(N3)C2=O)C(C)C)C1 (atropisomer, axis not shown) [Example A520]
stdout: 5.00 to 6.00

----------
Kindly state IC50 for each of the entries shown.
Molecular target: KRAS WT (Homo sapiens (Human), UniProt P01116+P62937)
Sequence (P01116-2 other isoform, or with tags, fused parts or gaps): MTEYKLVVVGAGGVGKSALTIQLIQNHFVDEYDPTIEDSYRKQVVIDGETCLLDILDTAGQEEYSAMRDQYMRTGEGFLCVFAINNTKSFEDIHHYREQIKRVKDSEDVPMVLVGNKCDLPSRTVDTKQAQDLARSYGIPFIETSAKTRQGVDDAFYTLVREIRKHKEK
Sequence (P62937 whole entry): as the sequence (P62937 whole entry) above
Assay: Ras-Raf (BRAF RBD) disruption / FRET / MOA assay, KRAS WT
Type: biochemical
Settings: read-out: IC50* KRAS WT FRET data

stdin: Could you please provide reported IC50 for C=CS(=O)(=O)N1CCC(C(=O)N(C)[C@H](C(=O)N[C@H]2Cc3nc(cs3)-c3ccc4c(c3)c(c(-c3cncnc3)n4CC)CC(C)(C)COC(=O)[C@@H]3CCCN(N3)C2=O)C(C)C)C1 (single isomer, unassigned) ? Thanks!
stdout: > 10 µM

stdin: Could you please provide reported IC50 for CCn1c(-c2cccnc2COC)c2c3cc(ccc31)-c1cc(O)cc(c1)C[C@H](NC(=O)[C@@H](C(C)C)N(C)C(=O)[C@H]1C[C@@H](C)N(C(=O)C#CCN(C)C)C1)C(=O)N1CCC[C@H](N1)C(=O)OCC(C)(C)C2 ? Thanks!
stdout: > 10 µM

stdin: Give IC50 for the following compound: C=CC(=O)N1C[C@@H](C)[C@H](N(C)C(=O)N(C)[C@H](C(=O)N[C@H]2Cc3nc(cs3)-c3ccc4c(c3)c(c(-c3cccnc3[C@H](C)OC)n4CC)CC(C)(C)COC(=O)[C@@H]3CCCN(N3)C2=O)C(C)C)C1 (atropisomer, axis not shown)
stdout: 1 to 10 µM

stdin: Using known records, supply IC50 for CCn1c(-c2cccnc2[C@H](C)OC)c2c3cc(ccc31)-c1cccc(c1)C[C@H](NC(=O)[C@H](C(C)C)N(C)C(=O)[C@@H]1CCN(C(=O)C#CC(C)(C)N3CCC3)C1)C(=O)N1CCC[C@H](N1)C(=O)OCC(C)(C)C2
stdout: 1 to 10 µM

----------
Molecular target: KRAS G12V (Homo sapiens (Human), UniProt P01116+P62937, G12V)
Sequence (P01116-2 other isoform, or with tags, fused parts or gaps G12V): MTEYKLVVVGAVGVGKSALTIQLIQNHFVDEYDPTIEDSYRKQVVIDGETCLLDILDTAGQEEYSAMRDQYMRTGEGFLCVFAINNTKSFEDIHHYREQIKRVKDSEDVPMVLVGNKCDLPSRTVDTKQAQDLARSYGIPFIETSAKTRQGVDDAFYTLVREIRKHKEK
Sequence (P62937 whole entry): as the sequence (P62937 whole entry) above
Assay: Ras-Raf (BRAF RBD) disruption / FRET / MOA assay, KRAS G12V
Type: biochemical
Conditions: read-out: IC50* KRAS G12V FRET data
Description: The purpose of this biochemical assay is to measure the ability of test compounds to facilitate ternary complex formation between a nucleotide-loaded Ras isoform and cyclophilin A; the resulting ternary complex disrupts binding to a BRAF^RBD construct, inhibiting Ras signaling through a RAF effector. Compound is present in plate wells as a 10-point 3-fold dilution series starting at a final concentration of 30 μM. […]
QUANTITY: IC50

stdin: Quote IC50 reported for C=CC(=O)N1CC[C@H](C(=O)N(C)[C@H](C(=O)N[C@H]2Cc3cc(O)cc(c3)-c3ccc4c(c3)c(c(-c3cccc5c3COC5)n4CC)CC(C)(C)COC(=O)[C@@H]3CCCN(N3)C2=O)C(C)C)C1 please.
stdout: 1000 to 10000 nM

stdin: Complete the entry with IC50 for C=CC(=O)N1CC[C@H](C(=O)N(C)[C@H](C(=O)N[C@H]2Cc3cc(O)cc(c3)-c3ccc4c(c3)c(c(-c3cnc(N(C)C)s3)n4CC)CC(C)(C)COC(=O)[C@@H]3CCCN(N3)C2=O)C(C)C)C1
stdout: 1000 to 10000 nM

stdin: Answer with the recorded IC50 of C=CC(=O)N1CCOC2(CCN(C(=O)N(C)[C@H](C(=O)N[C@H]3Cc4nc(cs4)-c4ccc5c(c4)c(c(-c4cccnc4[C@H](C)OC)n5CC)CC(C)(C)COC(=O)[C@@H]4CCCN(N4)C3=O)C(C)C)CC2)C1 (atropisomer, axis not shown) only.
stdout: 100 to 1000 nM

stdin: Output IC50 of C/C=C(\C)S(=O)(=O)N1CC[C@H](C(=O)N(C)[C@H](C(=O)N[C@H]2Cc3cccc(c3)-c3ccc4c(c3)c(c(-c3cccnc3[C@H](C)OC)n4CC)CC(C)(C)COC(=O)[C@@H]3CCCN(N3)C2=O)C(C)C)C1 (atropisomer, axis not shown)
stdout: > 10000 nM

stdin: Dear colleague, please send me the reported IC50 for C=CC(=O)N1C[C@H](C)N(C(=O)N(C)[C@H](C(=O)N[C@H]2Cc3nc(cs3)-c3ccc4c(c3)c(c(-c3cccnc3[C@H](C)OC)n4CC)CC(C)(C)COC(=O)[C@@H]3CCCN(N3)C2=O)C(C)C)C[C@@H]1C (atropisomer, axis not shown) when you can.
stdout: 100 to 1000 nM

stdin: Indicate the recorded IC50 value for this compound: C=CC(=O)N(C)[C@@H]1C[C@@H](C)N(C(=O)N(C)[C@H](C(=O)N[C@H]2Cc3nc(cs3)-c3ccc4c(c3)c(c(-c3cccnc3[C@H](C)OC)n4CC)CC(C)(C)COC(=O)[C@@H]3CCCN(N3)C2=O)C(C)C)C1 (atropisomer, axis not shown)
stdout: 100 to 1000 nM

stdin: For the compound CCn1c(-c2cncnc2)c2c3cc(ccc31)-c1cccc(c1)[C@@H](OC)[C@H](NC(=O)[C@H](C(C)C)N(C)C(=O)[C@H]1CCN(C(=O)C#CCN3CCOCC3)C1)C(=O)N1CCC[C@H](N1)C(=O)OCC(C)(C)C2 , give its measured IC50 value.
stdout: > 10000 nM

stdin: Provide only the value of recorded IC50 for C=CC(=O)N1CC[C@H](C(=O)N(C)[C@H](C(=O)N[C@H]2Cc3nc(n(C)n3)-c3ccc4c(c3)c(c(-c3cccnc3[C@H](C)OC)n4CC)CC(C)(C)COC(=O)[C@@H]3CCCN(N3)C2=O)C(C)C)C1 (atropisomer, axis not shown)
stdout: 1000 to 10000 nM

stdin: Item C=CC(=O)N1CC[C@H](C(=O)N(C)[C@H](C(=O)N[C@H]2CC3=NN=C(S3)c3ccc4c(c3)c(c(-c3cccnc3COC)n4CC)CC(C)(C)COC(=O)[C@@H]3CCCN(N3)C2=O)C(C)C)C1 : provide IC50
stdout: > 10000 nM

stdin: Provide one value: measured IC50 of C=CC(=O)N1CC(F)(C(=O)N(C)[C@H](C(=O)N[C@H]2Cc3cccc(c3)-c3ccc4c(c3)c(c(-c3cccnc3[C@H](C)OC)n4CC)CC(C)(C)COC(=O)[C@@H]3CCCN(N3)C2=O)C(C)C)C1 (atropisomer, axis not shown)
stdout: 100 to 1000 nM

stdin: Consider the compound C=CC(=O)N1CCC2(CC1)CCN([C@H](C(=O)N[C@H]1Cc3cc(O)cc(c3)-c3ccc4c(c3)c(c(-c3ccccc3CCOC)n4CC)CC(C)(C)COC(=O)[C@@H]3CCCN(N3)C1=O)C(C)C)C2=O . State its measured IC50.
stdout: > 10000 nM

stdin: Answer with the recorded IC50 for the compound listed here: C=CC(=O)N1CCC2(CCN(C(=O)N(C)[C@H](C(=O)N[C@H]3Cc4nc(cs4)-c4ccc5c(c4)c(c(-c4cccnc4[C@H](C)OC)n5CC)CC(C)(C)COC(=O)[C@@H]4CCCN(N4)C3=O)C(C)C)CC2)C1 (atropisomer, axis not shown)
stdout: 100 to 1000 nM

stdin: Dear colleague, please send me the reported IC50 for C=CC(=O)N1CC(OC(=O)N(C)[C@H](C(=O)N[C@H]2Cc3cccc(c3)-c3ccc4c(c3)c(c(-c3cccnc3[C@H](C)OC)n4CC)CC(C)(C)COC(=O)[C@@H]3CCCN(N3)C2=O)C(C)C)C1 (atropisomer, axis not shown) when you can.
stdout: 1000 to 10000 nM

stdin: Give reported IC50 value for C=CC(=O)N1CC[C@H](C(=O)N(C)[C@H](C(=O)N[C@H]2Cc3cccc(c3)-c3ccc4c(c3)c(c(-c3cc(C5CCN(C)CC5)cnc3[C@H](C)OC)n4CC)CC(C)(C)COC(=O)[C@@H]3CCCN(N3)C2=O)C(C)C)C1 (atropisomer, axis not shown) [Example A516]
stdout: > 10000 nM

stdin: Read the entry C=CC(=O)N1CCO[C@H]2CN(C(=O)N(C)[C@H](C(=O)N[C@H]3Cc4cccc(n4)-c4ccc5c(c4)c(c(-c4cccnc4[C@H](C)OC)n5CC)CC(C)(C)COC(=O)[C@@H]4CCCN(N4)C3=O)C(C)C)C[C@H]21 (atropisomer, axis not shown) and write its reported IC50.
stdout: 1000 to 10000 nM
